Cited source: a collection of fitness landscapes (doi:10.1016/j.celrep.2020.107928)

B1: Caulobacter ParB omega fusion; a variant is named by its letters at X, in order, B8GW30 (parent)
chain: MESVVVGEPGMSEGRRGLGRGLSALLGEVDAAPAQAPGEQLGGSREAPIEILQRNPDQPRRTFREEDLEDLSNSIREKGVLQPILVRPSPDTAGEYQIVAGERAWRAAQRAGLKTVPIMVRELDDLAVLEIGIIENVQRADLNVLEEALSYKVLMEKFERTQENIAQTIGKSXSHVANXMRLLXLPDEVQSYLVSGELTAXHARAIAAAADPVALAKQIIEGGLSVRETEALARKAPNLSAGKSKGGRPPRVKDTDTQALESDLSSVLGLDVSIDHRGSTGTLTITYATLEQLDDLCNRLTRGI

Variants of: B1
protocol: one-hybrid fitness for binding NBS DNA (the Noc-binding site; scaled: cognate 1, non-cognate 0); higher = stronger binding
assay conditions: with NBS DNA site
Whole data set: some 81,000 sequences, median “one-hybrid fitness for binding NBS DNA” near -0.1, cut for the highest 2% near 0.36. What follows is part of a selection rich in the highest values, with near analogues and random picks from the rest.
I'd appreciate it if you could supply one-hybrid fitness for binding NBS DNA values for the items below.
Kindly provide the number alone.

Exercise: Fill blank: measured one-hybrid fitness for binding NBS DNA of the variant `KRVS` is ____.
Solution: 0.395

Exercise: Fill blank: measured one-hybrid fitness for binding NBS DNA of the variant `QQMH` is ____.
Solution: 0.222

Exercise: Fill blank: measured one-hybrid fitness for binding NBS DNA of the variant `KRKN` is ____.
Solution: 0.272

Exercise: Fill blank: measured one-hybrid fitness for binding NBS DNA of the variant `KRKM` is ____.
Solution: 0.253
